target: Rho-associated protein kinase 2 (Homo sapiens); test: Inhibition of recombinant human N-terminal GST-tagged ROCK2 cytoplasmic domain (1 to 552 residues) expressed in baculovirus expression system at 500 nM by Z-LYTE assay relative to control
Quick reference for inhibition among some compounds

[
  {
    "smiles_str": "CN(C)CCn1cc(-c2cccc(O)c2)c2c(N)ncnc21",
    "tested_target": "Rho-associated protein kinase 2 (Homo sapiens)",
    "inhibition, %": 33
  },
  {
    "smiles_str": "OCc1ccc(-c2cc3c(N[C@H](CO)c4ccccc4)ncnc3[nH]2)cc1",
    "tested_target": "Rho-associated protein kinase 2 (Homo sapiens)",
    "inhibition, %": 6
  },
  {
    "smiles_str": "CCC(=O)Nc1ccc(-c2c[nH]c3ncnc(N[C@H](C)c4ccccc4)c23)cc1",
    "tested_target": "Rho-associated protein kinase 2 (Homo sapiens)",
    "inhibition, %": 6
  },
  {
    "smiles_str": "OC[C@@H](Nc1ncnc2sc(-c3ccc(O)cc3)cc12)c1ccccc1",
    "tested_target": "Rho-associated protein kinase 2 (Homo sapiens)",
    "inhibition, %": 2
  }
]
